assay: Phase I single dose pharmacokinetics in healthy adult subjects
Format: in vivo, human
details: human, plasma; 1 g IV (ZTI-01), mean ± SD
test readout: CL renal (mL/min)
Kindly answer with a numeric value in mL/min, unit omitted.

Tell me measured CL renal for C[C@@H]1O[C@@H]1P(=O)(O)O please.
110

###

assay: Phase I single dose pharmacokinetics in healthy adult subjects
Assay type: in vivo, human
details: human; 3 g PO (Monurol), plasma, mean ± SD
test readout: Cmax
Write the figure, then the unit, nothing else.

Tell me measured Cmax for C[C@@H]1O[C@@H]1P(=O)(O)O [FOS, fosfomycin] please.
26800 ng/mL

###

assay: Phase I single dose pharmacokinetics in healthy adult subjects
Format: in vivo, human
details: human; 3 g PO (Monurol), plasma, mean ± SD
test readout: AUC(0-inf) (µg·h/mL)
Kindly answer with a numeric value in µg·h/mL, unit omitted.

Tell me measured AUC(0-inf) for C[C@@H]1O[C@@H]1P(=O)(O)O please.
191

###

assay: Phase I single dose pharmacokinetics in healthy adult subjects
Type: in vivo, human
details: human, plasma; 1 g IV (ZTI-01), mean ± SD
test readout: Vd (L)
Kindly answer with a numeric value in L, unit omitted.

Tell me measured Vd for C[C@@H]1O[C@@H]1P(=O)(O)O please.
29.7

###

assay: Phase I single dose pharmacokinetics in healthy adult subjects
Assay type: in vivo, human
details: human; 8 g IV (ZTI-01), plasma, mean ± SD
test readout: Cmax (µg/mL)
Kindly answer with a numeric value in µg/mL, unit omitted.

Tell me measured Cmax for C[C@@H]1O[C@@H]1P(=O)(O)O please.
370

###

assay: Phase I single dose pharmacokinetics in healthy adult subjects
Type: in vivo, human
details: human; 1 g IV (ZTI-01), plasma, mean ± SD
test readout: AUC(0-inf) (µg·h/mL)
Kindly answer with a numeric value in µg·h/mL, unit omitted.

Tell me measured AUC(0-inf) for C[C@@H]1O[C@@H]1P(=O)(O)O [FOS, fosfomycin] please.
120

###

assay: Phase I single dose pharmacokinetics in healthy adult subjects
Assay type: in vivo, human
details: human, in vivo; 8 g IV (ZTI-01), plasma, mean ± SD
test readout: half-life (h)
Kindly answer with a numeric value in h, unit omitted.

Tell me measured half-life for C[C@@H]1O[C@@H]1P(=O)(O)O please.
2.8

###

assay: Phase I single dose pharmacokinetics in healthy adult subjects
Format: in vivo, human
details: human; 8 g IV (ZTI-01), plasma, mean ± SD
test readout: Tmax (h)
Kindly answer with a numeric value in h, unit omitted.

Tell me measured Tmax for C[C@@H]1O[C@@H]1P(=O)(O)O please.
1.08

###

assay: Phase I single dose pharmacokinetics in healthy adult subjects
Type: in vivo, human
details: human; 1 g IV (ZTI-01), plasma, mean ± SD
Protocol: Materials/methods: Phase I, open-label study evaluating IV (ZTI-01) and PO (Monurol®) FOS in healthy adult subjects. […] Blood and urine samples were collected serially before and through 48 hours post-dose and analyzed via LC/MS-MS. Noncompartmental analyses were performed via WinNonlin. Safety was monitored throughout the course of the study.
test readout: Tmax (h)
Kindly answer with a numeric value in h, unit omitted.

Tell me measured Tmax for C[C@@H]1O[C@@H]1P(=O)(O)O please.
1.1

###

assay: Phase I single dose pharmacokinetics in healthy adult subjects
Format: in vivo, human
details: human, in vivo; 3 g PO (Monurol), plasma, mean ± SD
test readout: half-life
Write the figure, then the unit, nothing else.

Tell me measured half-life for C[C@@H]1O[C@@H]1P(=O)(O)O please.
9.04 h

###

assay: Phase I single dose pharmacokinetics in healthy adult subjects
Format: in vivo, human
details: human, plasma; 3 g PO (Monurol), mean ± SD
Description: Materials/methods: Phase I, open-label study evaluating IV (ZTI-01) and PO (Monurol®) FOS in healthy adult subjects. […] Blood and urine samples were collected serially before and through 48 hours post-dose and analyzed via LC/MS-MS. Noncompartmental analyses were performed via WinNonlin. Safety was monitored throughout the course of the study.
test readout: CL renal (mL/min)
Kindly answer with a numeric value in mL/min, unit omitted.

Tell me measured CL renal for C[C@@H]1O[C@@H]1P(=O)(O)O please.
108

###

assay: Single dose plasma PK in mice after SC administration
details: mouse, in vivo
test readout: half-life

Tell me measured half-life for C[C@@H]1O[C@@H]1P(=O)(O)O [FOS, fosfomycin] please.
30.6 to 66 min

###

assay: Phase I single dose pharmacokinetics in healthy adult subjects
Assay type: in vivo, human
details: human; 1 g IV (ZTI-01), plasma, mean ± SD
test readout: Cmax (ng/mL)
Kindly answer with a numeric value in ng/mL, unit omitted.

Tell me measured Cmax for C[C@@H]1O[C@@H]1P(=O)(O)O please.
44300

###

assay: Phase I single dose pharmacokinetics in healthy adult subjects
Type: in vivo, human
details: human, in vivo; 3 g PO (Monurol), mean ± SD
test readout: Vd/F (L)
Kindly answer with a numeric value in L, unit omitted.

Tell me measured Vd/F for C[C@@H]1O[C@@H]1P(=O)(O)O [FOS, fosfomycin] please.
204

###

assay: Phase I single dose pharmacokinetics in healthy adult subjects
Type: in vivo, human
details: human, plasma; 8 g IV (ZTI-01), mean ± SD
test readout: CL renal (mL/min)
Kindly answer with a numeric value in mL/min, unit omitted.

Tell me measured CL renal for C[C@@H]1O[C@@H]1P(=O)(O)O please.
105

###

assay: Phase I single dose pharmacokinetics in healthy adult subjects
Type: in vivo, human
details: human, plasma; 8 g IV (ZTI-01), mean ± SD
test readout: Vd (L)
Kindly answer with a numeric value in L, unit omitted.

Tell me measured Vd for C[C@@H]1O[C@@H]1P(=O)(O)O please.
31.5

###

assay: Phase I single dose pharmacokinetics in healthy adult subjects
Assay type: in vivo, human
details: human; 3 g PO (Monurol), plasma, mean ± SD
test readout: Tmax (h)
Kindly answer with a numeric value in h, unit omitted.

Tell me measured Tmax for C[C@@H]1O[C@@H]1P(=O)(O)O please.
2.25

###

assay: Phase I single dose pharmacokinetics in healthy adult subjects
Assay type: in vivo, human
details: human, in vivo; 1 g IV (ZTI-01), plasma, mean ± SD
test readout: half-life (min)
Kindly answer with a numeric value in min, unit omitted.

Tell me measured half-life for C[C@@H]1O[C@@H]1P(=O)(O)O [FOS, fosfomycin] please.
144

###

assay: Phase I single dose pharmacokinetics in healthy adult subjects
Type: in vivo, human
details: human; 8 g IV (ZTI-01), plasma, mean ± SD
test readout: AUC(0-inf)
Write the figure, then the unit, nothing else.

Tell me measured AUC(0-inf) for C[C@@H]1O[C@@H]1P(=O)(O)O please.
1060 µg·h/mL
